# MEASUREMENT NOTES: Kinetic solubility in phosphate-buffered saline pH 7.4
# CONDITION SUMMARY: 25 °C, pH 7.4, aqueous buffer, kinetic from dmso stock
PROPERTY LABEL: solubility kinetic at 2 h (µM)
Dear colleague, please return just the value in µM, with no unit written.

-- ask Fill in the blank: the reported solubility kinetic at 2 h of CC(C)N(Cc1ccccc1)C(=O)C(C)(C)C [Tebutam] is ____.
-- reply 324

-- ask Fill in the blank: the reported solubility kinetic at 2 h of CN(Cc1ccc(C(C)(C)C)cc1)Cc1cccc2ccccc12 [Butenafine] is ____.
-- reply 10

-- ask Fill in the blank: the reported solubility kinetic at 2 h of CCc1cc(C)cc(CC)c1-c1c(OC(=O)C(C)(C)C)n2n(c1=O)CCOCC2 [Pinoxaden] is ____.
-- reply 358
